These measurements were taken from patent US20260132127A1.

# System under test: human TRH-DE (Homo sapiens, UniProt Q9UKU6)
# Sequence (Q9UKU6 1-1069): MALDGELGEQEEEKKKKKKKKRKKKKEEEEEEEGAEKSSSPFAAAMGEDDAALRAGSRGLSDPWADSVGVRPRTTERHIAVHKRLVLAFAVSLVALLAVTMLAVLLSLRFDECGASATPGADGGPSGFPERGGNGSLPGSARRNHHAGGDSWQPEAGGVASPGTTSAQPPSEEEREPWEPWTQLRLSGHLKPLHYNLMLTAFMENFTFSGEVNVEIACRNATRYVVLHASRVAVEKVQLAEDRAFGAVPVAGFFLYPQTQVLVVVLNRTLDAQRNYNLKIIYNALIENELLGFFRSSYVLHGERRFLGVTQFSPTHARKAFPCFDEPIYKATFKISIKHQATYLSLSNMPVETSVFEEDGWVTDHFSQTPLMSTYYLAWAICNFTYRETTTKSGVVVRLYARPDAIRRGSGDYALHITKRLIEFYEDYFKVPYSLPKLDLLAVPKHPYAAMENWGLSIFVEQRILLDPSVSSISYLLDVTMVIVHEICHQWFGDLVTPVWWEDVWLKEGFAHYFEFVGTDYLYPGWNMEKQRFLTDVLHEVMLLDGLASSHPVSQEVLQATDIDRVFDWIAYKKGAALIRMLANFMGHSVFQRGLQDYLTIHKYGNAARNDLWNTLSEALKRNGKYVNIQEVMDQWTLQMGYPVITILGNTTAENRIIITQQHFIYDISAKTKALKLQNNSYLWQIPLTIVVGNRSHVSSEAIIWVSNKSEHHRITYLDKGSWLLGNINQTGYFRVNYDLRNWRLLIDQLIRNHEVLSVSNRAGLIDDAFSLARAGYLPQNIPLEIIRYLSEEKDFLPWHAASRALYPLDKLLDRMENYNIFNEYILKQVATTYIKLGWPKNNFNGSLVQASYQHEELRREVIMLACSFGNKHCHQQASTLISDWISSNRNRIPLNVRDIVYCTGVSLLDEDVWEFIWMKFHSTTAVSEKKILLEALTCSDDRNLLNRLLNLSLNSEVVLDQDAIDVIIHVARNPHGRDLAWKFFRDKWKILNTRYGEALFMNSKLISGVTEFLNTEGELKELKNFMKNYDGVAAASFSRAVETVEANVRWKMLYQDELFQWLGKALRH
pIC50: −log10 of the molar value.
Recorded endpoint: pIC50

A selection of reference data follows.
Cc1nc2c(cc1F)C(=O)N(C1CC3(C1)CN(S(=O)(=O)c1ccccc1[N+](=O)[O-])C3)[C@H](C)CO2: 6.74
C[C@@H]1COc2nc(OC3CC(C#N)C3)ncc2C(=O)N1C1CC2(C1)CN(S(=O)(=O)c1ccccc1F)C2 (stereo in doubt): 8.00
Cc1ccnc2c1OCC(C)N(C1CC3(C1)CN(S(=O)(=O)c1ccccc1F)C3)C2=O (racemic): 7.70

P. CCCN(C(=O)c1cccnc1OC)C1CC2(C1)CN(S(=O)(=O)c1cccs1)C2
Q. C[C@@H]1CN(C(=O)C2CC2)c2cccnc2C(=O)N1C1CC2(C1)CN(S(=O)(=O)c1ccccc1F)C2
R. CC1c2ccc(F)cc2C(=O)N1C1CC2(C1)CN(S(=O)(=O)c1ccccc1F)C2 (racemic)
S. C[C@@H]1COc2cc(N3CCC(C(F)(F)F)C3)ncc2C(=O)N1C1CC2(C1)CN(S(=O)(=O)c1ccccc1F)C2 (mixture of isomers)
Exam item: Could you please order the items by pIC50, going from the lowest number to the highest? Return the labels ranked in the requested order, please.
Marked response: P, R, Q, S
(P: 6.07, R: 6.72, Q: 7.25, S: 9.00)
